target: 5-HT2A receptor (Homo sapiens, UniProt P28223); construct: host or cells: HEK293; test: FLIPR Ca2+ flux functional assay, 5-HT2A agonist activity; type: cell-based; settings: agonist activity, Ca2+ flux, stably transfected HEK293 cells
Sequence (P28223 whole entry): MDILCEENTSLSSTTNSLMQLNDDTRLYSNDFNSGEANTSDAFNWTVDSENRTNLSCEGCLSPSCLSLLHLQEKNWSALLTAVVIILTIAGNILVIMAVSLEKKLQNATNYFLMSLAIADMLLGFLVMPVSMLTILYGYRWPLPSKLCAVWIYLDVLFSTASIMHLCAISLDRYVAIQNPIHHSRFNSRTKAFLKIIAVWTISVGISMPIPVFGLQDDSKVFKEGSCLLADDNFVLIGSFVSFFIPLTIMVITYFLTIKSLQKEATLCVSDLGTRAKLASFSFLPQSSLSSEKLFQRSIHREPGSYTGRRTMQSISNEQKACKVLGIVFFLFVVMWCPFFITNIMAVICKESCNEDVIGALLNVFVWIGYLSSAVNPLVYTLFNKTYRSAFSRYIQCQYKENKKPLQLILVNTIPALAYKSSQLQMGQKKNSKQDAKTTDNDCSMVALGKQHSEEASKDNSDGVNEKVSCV
Define the label as Condition met when Emax is strictly less than 70% and as Condition not met in all remaining cases.

Q: Answer whether the molecule "CCN(CCc1c[nH]c2ccc(OC)cc12)CC(C)C" has Emax strictly less than 70%
Ans: Condition not met

Q: Is it true that Emax reported for CCC(C)N(C)CCc1c[nH]c2cccc(OC)c12 (stereo not drawn) is less than 70%?
Ans: Condition met

Q: Report whether reported Emax is lower than 70% (strictly) for "CCCN(CCc1c[nH]c2ccc(OC)cc12)C(C)C"
Ans: Condition not met

Q: Field: below-cutoff. Rule: recorded Emax strictly less than 70%. Subject: "CCN(CCc1c[nH]c2cccc(O)c12)CC(C)C"
Ans: Condition not met

Q: # check: Emax < 70% for "COc1ccc2[nH]cc(CCN(C)C3CCC3)c2c1"
Ans: Condition not met

Q: Please check: Emax for "CCN(CCc1c[nH]c2ccccc12)CC(C)C" , strictly under 70% or not?
Ans: Condition met

Q: Strictly below 70% in Emax? "COc1ccc2[nH]cc(CCN(C)C3COC3)c2c1"
Ans: Condition met

Q: API: query returns whether the molecule falls strictly under 70% in Emax. Query: "Cc1cccc2[nH]cc(CCN(C)C(C)C)c12"
Ans: Condition not met

Q: Find out if reported Emax for CCC(C)N(CC)CCc1c[nH]c2cccc(O)c12 (stereo not drawn) is less than 70%
Ans: Condition not met

Q: Strictly below 70%: is that where Emax of CCC(C)N(C)CCc1c[nH]c2ccccc12 (stereo not drawn) sits?
Ans: Condition met

Q: Please check: Emax for CCC(C)N(C)CCc1c[nH]c2ccc(OC)cc12 (stereo not drawn) , strictly under 70% or not?
Ans: Condition met

Q: hey, is Emax for "COc1cccc2[nH]cc(CCN(C)CC(C)C)c12" lower than 70% or not?
Ans: Condition not met

Q: Input "COc1ccc2[nH]cc(CCN(C)C3CC3)c2c1" ; condition: Emax strictly below 70%. Does it hold?
Ans: Condition not met

Q: Please check: Emax for CCC(C)N(CC)CCc1c[nH]c2cccc(OC)c12 (stereo not drawn) , strictly under 70% or not?
Ans: Condition not met
